Tgt: T1, cynomolgus monkey CD8A on primary cynomolgus monkey CD8+ T cells (cynomolgus monkey, UniProt P01732 23-235 (human entry))
T1 construct: also called Cyno CD8alpha
Assay name: flow cytometry, cyno CD8+ T cells, 0.2 uM FN3
Measurement type: Cyno T-cell Binding 0.2 uM (MFI)
# value in MFI; strip the unit string

Binder	Cyno T-cell Binding 0.2 uM (MFI)
P282ER9P1360_C8 (designed binder, FN3 domain) LPAPKNLVVSRVTEDSARLSWTAPDAAFDSFGILYYEPVDSGEAITLPVPGSERSYDLTGLKPGTEYWVVITGVKGGAPSTPLGTIFTT	10200

Ask | Requested read-out: Cyno T-cell Binding 0.2 uM (MFI). Entry: P282DR9P1359_F2 (designed binder, FN3 domain) LPAPKNLVVSRVTEDSARLSWTAPDAAFDSFNIAYPEALHPGYGEAIVLTVPGSERSYDLTGLKPGTEYWVIIGGVKGGQKSWPLSAIFTTGGHHHDHH
Reply | 4030
